Listed here: items and their measured pIC50.
- TARGET OR SYSTEM: human orexin-2 receptor (Homo sapiens (Human), UniProt O43614)
- Sequence (O43614 whole entry): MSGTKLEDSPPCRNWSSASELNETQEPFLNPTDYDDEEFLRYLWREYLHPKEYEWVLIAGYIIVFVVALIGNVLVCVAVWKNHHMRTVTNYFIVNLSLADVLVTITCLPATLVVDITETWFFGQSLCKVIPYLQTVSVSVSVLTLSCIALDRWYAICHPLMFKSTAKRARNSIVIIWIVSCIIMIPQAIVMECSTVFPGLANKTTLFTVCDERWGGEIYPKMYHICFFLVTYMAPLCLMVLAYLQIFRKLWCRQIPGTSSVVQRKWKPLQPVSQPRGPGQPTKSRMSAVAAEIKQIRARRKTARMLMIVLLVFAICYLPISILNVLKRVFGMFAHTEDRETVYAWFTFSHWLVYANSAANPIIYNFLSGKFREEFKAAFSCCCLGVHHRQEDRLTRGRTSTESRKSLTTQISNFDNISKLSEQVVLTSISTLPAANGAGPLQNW
- ASSAY PROCEDURE: FLIPR Ca2+ Flux Assay, hOX2R
- EXPERIMENTAL SETUP: CHO cells expressing human orexin-2 receptor; agonist 70 pM Ala-6,12 human orexin-A
pIC50 here is simply -log10 of the concentration when that concentration is written in mol/L.

The examples below pair each entry with its known result.
INSERT INTO assay_data (compound, endpoint_label, quantitative_readout) VALUES
  ('CCN(CCc1nc(C(C)(C)O)c(C)o1)C(=O)c1ccccc1-n1ncnn1', 'pIC50', 6.31),
  ('CCN(CCc1nc(C(C)(C)O)c(C)o1)C(=O)c1ccccc1C1CC1', 'pIC50', 6.41),
  ('CCN(CCc1nc(C(C)(C)O)c(C)o1)C(=O)c1sccc1-n1nccn1 [Example 10d]', 'pIC50', 6.36),
  ('CCN(CCc1nc(C(C)(C)O)c(C)o1)C(=O)c1ccccc1-c1ccccc1', 'pIC50', 7.54);

Any idea what pIC50 was measured for "CCCN(CCc1nc(C(C)(C)O)c(C)o1)C(=O)c1ccccc1-n1nccn1" ? 7.72

Any idea what pIC50 was measured for "Cc1oc(CCN(C(=O)c2ccccc2-n2nccn2)C2CCC2)nc1C(C)(C)O" ? 7.42

Any idea what pIC50 was measured for "CCN(CCc1nc(C(C)(C)O)c(C)o1)C(=O)c1ccsc1-n1nccn1" ? 7.20

Any idea what pIC50 was measured for CCN(CCc1nc(C(C)(C)O)c(C)o1)C(=O)c1ccccc1C1(C#N)CC1 [Example 10b] ? 7.59

Any idea what pIC50 was measured for "CCN(CCc1nc(C(C)(C)O)c(C)o1)C(=O)c1cc(F)ccc1-n1nccn1" ? 7.21

* * *

- TARGET OR SYSTEM: human orexin-2 receptor (Homo sapiens (Human))
- ASSAY PROCEDURE: FLIPR Ca2+ Flux Assay, hOX2R
- EXPERIMENTAL SETUP: CHO cells expressing human orexin-2 receptor; agonist 70 pM Ala-6,12 human orexin-A
Listed here: items and their measured IC50.
Give your result in nM as a bare value.

The examples below pair each entry with its known result.
INSERT INTO assay_data (compound, quantitative_readout) VALUES
  ('CCN(CCc1nc(C(C)(C)O)c(C)o1)C(=O)c1ccccc1C1(C(F)F)CC1 [Example 18b]', 145),
  ('CCN(CCc1nc(C(C)(C)O)c(C)o1)C(=O)c1cccnc1-n1cccn1', 101);

Now for the compound whose IC50 we want.
Any idea what IC50 was measured for "Cc1oc(CCN(C(=O)c2ccccc2-n2nccn2)C(C)C)nc1C(C)(C)O" ? 152
